// data source = PubChem BioAssay (NCI)

test system: T-47D breast; test: NCI tumour cell line growth inhibition, 48 h
*1 amine or outer side, *2 acyl side, *3 side chain or, on linkers, in order; H or OH if unused. Where a SMILES comes first, the peptide text is derived from it. Bridges are numbered along the chain shown (N, C = ends). [ ]: non-standard residue; d: D form. X59 = COc1c(N[*:1])cccc1C(=O)O[C@H](C(=O)[C@H](C)C(=O)[*:2])C(C)C; X58 = CC(C)C[C@H](C(=O)[*:2])C(C)C(=O)C1CCCN1[*:1]; NMeY = CN[C@@H](Cc1ccc(O)cc1)C(=O)O; Lac = C[C@H](O)C(=O)O
For each entry below, report its TGI value.

Recorded results for 2 compounds are shown here.
compound: CC(=O)c1c2c(cc3c1CC1(C3)Cc3cc4c(c(C(C)=O)c3C1)CCCC4)CCCC2
measured_quantity: TGI
observed_measurement: > 100 µM

compound: COc1cc(O)c2c(=O)c(OC)c(-c3ccc(OC)c(OC)c3)oc2c1.[Zn+2]
measured_quantity: TGI
observed_measurement: > 100 µM

For every item below, please supply its TGI.
1. COc1ccc(C[C@H]2C(=O)O[C@H](C)[C@H](NC(=O)[C@@H](CC(C)C)C(C)C(=O)C3CCCN3C(=O)[C@H](C)O)C(=O)Nc3cccc(c3OC)C(=O)O[C@@H](C(C)C)C(=O)[C@H](C)C(=O)N[C@@H](CC(C)C)C(=O)N3CCC[C@H]3C(=O)N2C)cc1 (some centres undefined) (H-[Lac][X58]T[X59]LP[NMeY](Me); ester 3-C)
2. CC(=O)Oc1cc(/C=C/c2ccc(O)cc2)cc(OC(C)=O)c1

Output:
["> 12.5 µM", "> 100 µM"]

---

system: 786-0 renal; assay: NCI tumour cell line growth inhibition, 48 h
Assign TGI to each entry below.
Give bare numbers, in µM.

chemical_structure: CCOc1ccc(NC(=O)c2cc3ccccc3cc2O)cc1
TGI / µM: 74.5

Note: attention shifts to another entry.
Task: Which value of TGI has been reported for CN(C)CCC(/C=C/c1ccccc1)=N\Nc1ccc(Cl)cc1 in the records?
Output: 6.26

---

tested on: HL-60(TB) leukemia; assay: NCI tumour cell line growth inhibition, 48 h; in the data active means GI50 below about 0.43 µM; inactive means the rest
A correct response names exactly one class from y = active, n = inactive

Task: Can you look up the reported call for O=C(Nc1nc(-c2ccccc2)cs1)c1cc(O)c(O)c(O)c1 for me?
Output: n

Task: Look up the recorded call for CCCC(CCC)Oc1ccc(CCCC2=C(O)c3ccccc3C(=O)C2=O)cc1 in this test.
Output: n

Task: Which outcome did this test record for the molecule OCc1ncc(-c2ccccc2)s1 ?
Output: n

Task: Status in this test for CCCCCCCCc1ccc(CCC(N)(CO)CO)cc1 ?
Output: n

Task: Hi, do you know how COc1ccc2c(c1)C(=O)c1c-2n(CCCN=[N+]=[N-])c(=O)c2cc(N)ccc12 came out in this test?
Output: n

Task: What is the recorded call for this molecule in the test? CC(=O)Oc1ccccc1C(=O)NCCC[Se]C#N
Output: n

Task: What is the recorded call for this molecule in the test? COC1C(O)CC(OC2CC(OC3CC(O[C@@H]4C(=O)c5c(cc6cc(OC7CC(OC8CC(O)C(O)C(C)O8)C(O)C(C)O7)c(C)c(O)c6c5O)C[C@H]4[C@H](OC)C(=O)[C@@H](O)[C@@H](C)O)OC(C)C3O)OC(C)C2O)OC1C (stereo not given in full)
Output: y

Task: Which result was noted for this molecule in the test: O=c1cc(-c2ccc3ccccc3c2)[nH]c2ncccc12
Output: n

Task: Which outcome was entered for the molecule COc1ccccc1Nc1nc2ccccc2c2occc12 in this test?
Output: n

Task: // param item: CC(C)c1ccc(/C=N/N=C(N)N)cc1 ; yields the recorded call
Output: n
